Attribution: patent US12624044B2

Measured Dmax, listed per entry for reference.
biological target: SMARCA2 (Homo sapiens, UniProt P51531); test: MSD SMARCA2 degradation in A549 cell line; assay type: cell-based; settings: A549, A549 cells, 24 h
Sequence (P51531 whole entry): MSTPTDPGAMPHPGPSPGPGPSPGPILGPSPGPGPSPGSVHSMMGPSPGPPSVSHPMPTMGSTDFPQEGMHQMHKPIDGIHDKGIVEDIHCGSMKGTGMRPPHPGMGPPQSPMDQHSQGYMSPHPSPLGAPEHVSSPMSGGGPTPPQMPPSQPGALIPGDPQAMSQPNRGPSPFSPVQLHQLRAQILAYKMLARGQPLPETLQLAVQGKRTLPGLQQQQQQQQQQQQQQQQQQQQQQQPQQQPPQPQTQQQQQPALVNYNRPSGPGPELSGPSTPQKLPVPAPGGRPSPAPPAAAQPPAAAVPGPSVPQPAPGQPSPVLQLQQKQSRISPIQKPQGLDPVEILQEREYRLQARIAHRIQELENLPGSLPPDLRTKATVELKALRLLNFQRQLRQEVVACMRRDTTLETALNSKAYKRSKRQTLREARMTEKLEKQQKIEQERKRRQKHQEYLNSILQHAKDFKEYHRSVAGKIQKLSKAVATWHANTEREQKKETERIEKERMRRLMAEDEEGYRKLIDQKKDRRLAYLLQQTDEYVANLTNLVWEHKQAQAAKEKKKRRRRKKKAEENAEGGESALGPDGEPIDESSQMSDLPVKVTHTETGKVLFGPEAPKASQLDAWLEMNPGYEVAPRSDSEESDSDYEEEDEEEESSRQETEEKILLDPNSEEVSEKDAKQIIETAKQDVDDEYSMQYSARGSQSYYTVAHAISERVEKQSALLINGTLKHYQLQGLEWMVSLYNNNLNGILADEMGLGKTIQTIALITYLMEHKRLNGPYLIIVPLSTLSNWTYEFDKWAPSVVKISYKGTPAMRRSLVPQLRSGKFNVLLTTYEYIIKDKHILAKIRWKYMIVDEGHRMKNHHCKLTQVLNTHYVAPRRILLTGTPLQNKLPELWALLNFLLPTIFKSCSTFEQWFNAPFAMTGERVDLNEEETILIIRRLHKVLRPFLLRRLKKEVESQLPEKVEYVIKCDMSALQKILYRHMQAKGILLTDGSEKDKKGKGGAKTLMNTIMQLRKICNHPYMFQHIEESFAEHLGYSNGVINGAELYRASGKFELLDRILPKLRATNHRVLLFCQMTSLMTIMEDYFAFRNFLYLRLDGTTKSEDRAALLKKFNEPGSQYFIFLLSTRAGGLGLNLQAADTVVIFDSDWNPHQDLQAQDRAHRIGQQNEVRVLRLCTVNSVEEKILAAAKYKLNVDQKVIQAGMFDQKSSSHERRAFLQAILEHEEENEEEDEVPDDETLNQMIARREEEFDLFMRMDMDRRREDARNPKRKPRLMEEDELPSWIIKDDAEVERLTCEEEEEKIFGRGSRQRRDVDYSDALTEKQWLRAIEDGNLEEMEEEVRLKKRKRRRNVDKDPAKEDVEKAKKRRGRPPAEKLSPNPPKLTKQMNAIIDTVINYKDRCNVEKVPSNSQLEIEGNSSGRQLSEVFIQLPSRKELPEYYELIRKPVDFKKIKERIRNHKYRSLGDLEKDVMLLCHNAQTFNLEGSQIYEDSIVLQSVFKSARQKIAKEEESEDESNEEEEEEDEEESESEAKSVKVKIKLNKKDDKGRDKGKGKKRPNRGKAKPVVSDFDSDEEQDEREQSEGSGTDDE

| Compound | Dmax |
| --- | --- |
| Cc1ncsc1-c1ccc(CNC(=O)[C@@H]2C[C@@H](O)CN2C(=O)[C@@H](NC(=O)C2(F)CC2)C2CCC(N(C)CCCc3cnc(N4C5CCC4CN(c4cc(-c6ccccc6O)nnc4N)C5)nc3)CC2)cc1 (stereo partly drawn) | < 50% |
| Cc1ncsc1-c1ccc(CNC(=O)[C@@H]2C[C@@H](O)CN2C(=O)[C@@H](NC(=O)C2CN(Cc3cnc(N4C5CCC4CN(c4cc(-c6ccccc6O)nnc4N)C5)nc3)C2)C(C)(C)C)cc1 | 50 to 70% |
| Cc1ncsc1-c1ccc(CNC(=O)[C@@H]2C[C@@H](O)CN2C(=O)[C@@H](NC(=O)C2CCC(c3cnc(N4C5CCC4CN(c4cc(-c6ccccc6O)nnc4N)C5)nc3)CC2)C(C)(C)C)cc1 (stereo partly drawn) | > 90% |
| Cc1ncsc1-c1ccc(CNC(=O)[C@@H]2C[C@@H](O)CN2C(=O)[C@@H](NC(=O)[C@H]2CC[C@H](c3cnc(N4C5CCC4CN(c4cc(-c6ccccc6O)nnc4N)C5)nc3C)CC2)C(C)(C)C)cc1 | > 90% |
| Cc1ncsc1-c1ccc(CNC(=O)[C@@H]2C[C@@H](O)CN2C(=O)[C@@H](NC(=O)C2CC=C(c3nccc(N4C5CCC4CN(c4cc(-c6ccccc6O)nnc4N)C5)n3)CC2)C(C)(C)C)cc1 (stereo partly drawn) | > 90% |

// next entry
So the reported Dmax for "Cc1ncsc1-c1ccc([C@H](C)NC(=O)[C@@H]2C[C@@H](O)CN2C(=O)[C@@H](NC(=O)[C@H]2CC[C@H](c3cnc(N4C5CCC4CN(c4cc(-c6ccccc6O)nnc4N)C5)nc3)CC2)C(C)(C)C)cc1" , on SMARCA2 (Homo sapiens, UniProt P51531), turned out to be > 90%
